Entry source: paper PMC12775819

# Internalization values compiled below
System: PSMA-positive LNCaP cells
Assay: Surface binding and internalization of 68Ga-labeled compounds
Type: cell-based, human
Details: 30 nM, 45 min, 37 °C, unblocked
Non-standard residues stand in square brackets, D forms with d. Residues, ends and D or L forms follow the SMILES beside them. *: point of attachment. DOTA = O=C(O)CN1CCN(CC(=O)O)CCN(CC(=O)*)CCN(CC(=O)O)CC1; EuK = O=C(O)CC[C@H](NC(=O)N[C@@H](CCCCN*)C(=O)O)C(=O)O; 2Nal = N[C@@H](Cc1ccc2ccccc2c1)C(=O)O; Trx = NC[C@H]1CC[C@H](C(=O)O)CC1
MEASURED PARAMETER: Internalization

1. O=C(O)CC[C@H](NC(=O)N[C@@H](CCCCNC(=O)[C@H](Cc1ccc2ccccc2c1)NC(=O)[C@H]1CC[C@H](CNC(=O)[C@H](Cc2c[nH]cn2)NC(=O)[C@H](CCC(=O)O)NC(=O)[C@H](Cc2c[nH]cn2)NC(=O)[C@H](CCC(=O)O)NC(=O)[C@H](Cc2c[nH]cn2)NC(=O)[C@H](CCC(=O)O)NC(=O)CN2CCN(CC(=O)O)CCN(CC(=O)O)CCN(CC(=O)O)CC2)CC1)C(=O)O)C(=O)O [PS3, EuK-NaI-ChX-(HE)3-DOTA] ({DOTA}-EHEHEH[Trx][2Nal]-EuK)
0.67 ± 0.14 %Binding / %Internalization
2. O=C(O)CC[C@H](NC(=O)N[C@@H](CCCCNC(=O)[C@H](Cc1ccc2ccccc2c1)NC(=O)[C@H](Cc1c[nH]cn1)NC(=O)[C@H](CCC(=O)O)NC(=O)[C@H](Cc1c[nH]cn1)NC(=O)[C@H](CCC(=O)O)NC(=O)[C@H](Cc1c[nH]cn1)NC(=O)[C@H](CCC(=O)O)NC(=O)[C@H]1CC[C@H](CNC(=O)CN2CCN(CC(=O)O)CCN(CC(=O)O)CCN(CC(=O)O)CC2)CC1)C(=O)O)C(=O)O [PS2, EuK-NaI-(HE)3-ChX-DOTA] ({DOTA-Trx}-EHEHEH[2Nal]-EuK)
0.55 ± 0.04 %Binding / %Internalization
